Listing: composite z-score of selected compounds
- protocol: compounds binding Alexa647 anti-His antibody – biochemical, small-molecule microarray, 635 nm fluorescence, artefact control for SMM control protein annotation, primary screen (AID 1128);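 also: score merges feature fluorescence with signal-to-noise for each printed compound spot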
- conditionSet: higher = more signal
valueType: composite z-score

1. CCCNC(=O)[C@@]1(c2ccc([N+](=O)[O-])cc2)CC(=O)N(C(C)C)[C@@H]1c1ccc(CO)cc1 | 0.736
2. COCCCNC(=O)[C@@]1(CCC(=O)OC(C)(C)C)COC(c2ccc(OCCCO)cc2)=N1 | 0.839
3. COCCCNC(=O)[C@@H]1c2ccccc2C(=O)N(Cc2ccc(OC(F)(F)F)cc2)[C@H]1c1ccc(CO)cc1 | 1.54
4. CC(C)[Si](C#CCCc1ccccc1)(O[C@H](c1ccccc1)c1cn(Cc2ccccc2)nn1)C(C)C | 0.269

----------
- protocol: binders of probe aHhip on microarray, primary screen, stem cell growth factor project, biochemical, small-molecule microarray, fluorescence 635/667 (AID 1087);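 also: score merges spot fluorescence at 667nm with spot signal to noise ratio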
- conditionSet: higher = more signal
Would you please tag the item satisfied when its composite z-score is 0.005 or above, and not satisfied when it is below?

1. CC(C)=CCCC=C(C)C(O)C1C=CC2C(=O)N(c3ccccc3)C(=O)C2N1Nc1ccc(C#N)cc1 (configuration not stated) | not satisfied
2. C=C(CCCC)/C(=C/C[C@H](OC(=O)c1ccncc1)c1ccc(OCCO)cc1)c1cnc2ccccc2c1 | not satisfied
3. O=C1N(CCS(=O)(=O)c2ccccc2)c2ccccc2C[C@]12N=C(c1ccc(OCCCO)cc1)O[C@@H]2c1ccccc1 | satisfied
4. C=CCC(OC(C)=O)[C@@H]1[C@@H](N(Cc2cc3ccccc3o2)C(=O)c2cccc3ccccc23)c2cc(OCCCO)ccc2N1C(=O)c1ccc2ccccc2n1 (some centres not stated) | not satisfied
5. [N-]=[N+]=Nc1ccccc1[C@@H]1OC(c2ccc(OCCCO)cc2)=N[C@]1(CCS(=O)(=O)c1ccccc1)C(=O)NCC(O)CO (some centres not stated) | satisfied
6. C=C(COC)C(=O)CC[C@@H](OC(=O)c1ccccc1-c1ccccc1C(=O)O)c1ccc(OCCO)cc1 | not satisfied
7. COc1ccc([Si](C)(C)[C@@H]2[C@@H](CC(=O)N3Cc4ccccc4C[C@H]3CO)O[C@]3(C(=O)N(Cc4ccc(N5CCOC5=O)cc4)c4ccccc43)[C@H]2C)cc1 | satisfied

----------
- protocol: basal CRE-LacZ reporter activity in PC12 – cell-based, unstimulated, primary screen (AID 1145)
- conditionSet: no forskolin, luminescence, 4.5 h, higher = more signal, called active from +8 up or from −8 down
Would you please tag the item met when its z-score is 0.8 or above, and not met when it is below?

1. CC(C)N1C(=O)c2ccccc2[C@@H](C(=O)NCC(F)(F)F)[C@@H]1c1ccc(CO)cc1 | not met
2. NC(=O)N1C(=O)C2C(C1=O)C1C=C(CCCO)C2C(C2CC2)N1Cc1sc2ccccc2c1Cl (stereo unspecified) | not met
3. CCCCC(O)C1C=CC2C(=O)N(c3ccccc3)C(=O)C2N1Nc1ccc(C#N)cc1 (stereo unspecified) | not met
4. CCOC(=O)C[C@H]1[C@H](OC(=O)c2ccccc2-c2ccccc2)[C@@H](NC(=O)C2CCCCC2)c2cc(OCCCO)ccc2N1C(=O)c1ccc2ccccc2n1 | met
5. CCCCCCc1nc(-c2ccc(-c3ccc(Cl)c(Cl)c3)o2)cc2c1[Si](C(C)C)(C(C)C)OC2 | not met
6. COCC(=C=CC[C@H](O)c1ccccc1OCCO)C[C@H](O)COCc1ccccc1 | met
7. CN(C)CCCNC(=O)[C@@]1(Cc2ccccc2I)c2ccccc2C(=O)N(C2CCCCC2)[C@H]1c1ccc(CO)cc1 | met
8. CN(C)CCCCNC(=O)[C@H]1C[C@H]2C(=O)NCC(=O)N2[C@H]1c1ccc(O)cc1 | not met
9. CCOC(=O)C1=C[C@@H](C(C)(C)C)N(S(=O)(=O)c2ccc(C)cc2)[C@H]1c1ccc(C#N)cc1 | not met
10. NC(=O)NCC#Cc1ccc2c(c1)[C@]1(C(=O)N2)[C@H](c2ccc(OCCO)cc2)N2[C@H](c3ccccc3)[C@H](c3ccccc3)OC(=O)[C@H]2[C@@H]1C(=O)NC[C@H](O)c1ccccc1 | not met
11. CC(C)(C)N1CC=CC23O[C@@H]4/C=C\CCCOC(=O)C4[C@H]2C(=O)N(CCCCCO)[C@@H]3C1=O (stereo partly specified) | not met
12. C=C1C(=O)C=C2CN(C(=O)c3ccccc3)[C@@](Cc3ccc(OC)cc3)(C(=O)OC)[C@@H]12 | not met
13. COc1ccc([Si](C)(C)[C@H]2[C@H](CCO)O[C@@]3(C(=O)N(Cc4ccc(NC(=O)[C@H](C)O)cc4)c4ccccc43)[C@@H]2C)cc1 | met
14. O=C1[C@@H]2[C@@H](CC(COc3ccccc3)=C([C@H](O)CCc3ccccc3)[C@@H]2CO)C(=O)N1Cc1ccccc1 | met
15. CN(C)CCCC[C@@H]1NC(=O)[C@H]2C[C@@H](C(=O)O)[C@@H](c3ccc(O)cc3)N2C1=O | not met
16. O=C(N1CCOCC1)[C@@]1(Cc2ccccc2)COC(c2ccc(OCCCO)cc2)=N1 | not met
17. CN(C)CCCC[C@@H]1NC(=O)[C@@H]2C[C@H](C(=O)NCCCCCN)[C@H](c3cccc(OCCO)c3)N2C1=O | not met
18. COCCOC(=O)N1C(=O)[C@@]2(c3cc(C#CCC(C(=O)OC)C(=O)OC)ccc31)[C@H](C(=O)Nc1nc3ccccc3s1)[C@H]1C(=O)O[C@H](c3ccccc3)[C@H](c3ccccc3)N1[C@@H]2c1ccc(O)cc1 | not met
19. COC(=O)c1cccc([C@H]2OC(=CC(=O)OC(C)C)C[C@@H](c3cccc(C(=O)OC)c3)O2)c1 | met
20. COCCCNC(=O)[C@@]1(CCS(=O)(=O)c2ccccc2)COC(c2ccc(OCCCO)cc2)=N1 | met
21. O=C(NCCN1CCOCC1)[C@@H]1c2ccccc2C(=O)N(Cc2ccccc2C(F)(F)F)[C@H]1c1ccc(CO)cc1 | not met
22. C=C(COC)C(=O)CC[C@@H](OC(C)=O)c1ccccc1OCCO | met
23. CC[C@@H]1C=C(C(=O)O)[C@H](c2ccc(OC)cc2)N1S(=O)(=O)c1ccc(C)cc1 | not met
24. C=C(C)[C@@H]1CC=C(C(O)C2C=CC3C(=O)N(c4ccccc4)C(=O)C3N2Nc2ccc([N+](=O)[O-])cc2)CC1 (stereo partly specified) | not met
25. CCCC[C@H]1OB(O)C[C@H]2C1=C(COc1ccccc1)C[C@H]1C(=O)C=CC(=O)[C@H]12 | met
26. NC(=O)N1C(=O)C2C(C1=O)C1C=C(CCCO)C2C(c2ccc(CN3CCCC3)cc2)N1Cc1cc2c(cc1Br)OCO2 (stereo unspecified) | not met
27. C=C(COC)C(=O)CC[C@H](OC(=O)c1cccnc1)c1ccc(OCCO)cc1 | met
28. [N-]=[N+]=NCc1ccccc1[C@@H]1OC(c2ccc(OCCCO)cc2)=N[C@]1(Cc1ccccc1N=[N+]=[N-])C(=O)O | not met
29. C=CC[C@@]1(C(=O)N(C)C)N=C(c2ccc(OCCCO)cc2)O[C@@H]1c1ccccc1CN=[N+]=[N-] | not met
